For each entry below, report its activity at 1 µM value.
# system: CXCR4 (Homo sapiens, UniProt P61073)
# Sequence (P61073 whole entry): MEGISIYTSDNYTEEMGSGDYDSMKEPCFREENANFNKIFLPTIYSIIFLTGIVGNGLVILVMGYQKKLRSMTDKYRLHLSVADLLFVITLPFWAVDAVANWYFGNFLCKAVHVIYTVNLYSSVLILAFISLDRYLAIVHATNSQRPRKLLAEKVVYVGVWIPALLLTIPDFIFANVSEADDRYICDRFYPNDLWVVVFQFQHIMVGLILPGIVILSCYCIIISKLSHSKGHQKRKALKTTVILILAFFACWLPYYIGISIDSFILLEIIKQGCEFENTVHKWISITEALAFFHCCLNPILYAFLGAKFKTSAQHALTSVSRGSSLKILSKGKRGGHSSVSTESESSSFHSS
# assayDetails: Chemotaxis assay, effect on SDF1-a (CXCL12) induced migration of CCRF-CEM cells
# Format: cell-based
# Set-up: a human T-cell ALL line that endogenously expresses CXCR4; endogenous in cells; host or cells: CCRF-CEM (human T-cell ALL line)
# conditionDetails: CCRF-CEM, Table 20, i3 loop; CEM cells; conc 1.0 uM; read-out: Max (% of vehicle)
Square brackets hold non-standard residues; d marks the D form. Peptide text beside a SMILES is read from it. * marks the point of attachment. ξ: configuration not given here. Biotin = O=C1N[C@H]2[C@H](CS[C@H]2CCCCC(=O)*)N1; ξGly(nC16H33) = CCCCCCCCCCCCCCCCC(N)C(=O)O; Palmitoyl = CCCCCCCCCCCCCCCC(=O)*
One number for each entry, in %.

[[record]]
molecule = "CCCCCCCCCCCCCCCC(=O)N[C@@H](CCCCN)C(=O)N[C@@H](CC(C)C)C(=O)N[C@@H](CO)C(=O)N[C@@H](Cc1cnc[nH]1)C(=O)N[C@@H](CO)C(=O)N[C@@H](CCCCN)C(=O)NCC(=O)N[C@@H](Cc1cnc[nH]1)C(=O)N[C@@H](CCC(N)=O)C(=O)N[C@@H](CCCCN)C(=O)N[C@@H](CCCNC(=N)N)C(=O)N[C@@H](CCCCN)C(=O)N[C@@H](C)C(=O)N[C@@H](CC(C)C)C(N)=O [Compound 93] (Palmitoyl-KLSHSKGHQKRKAL-NH2)"
readoutvalue = 54.8

[[record]]
molecule = "CCCCCCCCCCCCCCCCC(NC(=O)CCCC[C@@H]1SC[C@@H]2NC(=O)N[C@@H]21)C(=O)N[C@@H](Cc1cnc[nH]1)C(=O)N[C@@H](CO)C(=O)N[C@@H](CCCCN)C(=O)NCC(=O)N[C@@H](Cc1cnc[nH]1)C(=O)N[C@@H](CCC(N)=O)C(=O)N[C@@H](CCCCN)C(=O)N[C@@H](CCCNC(=N)N)C(=O)N[C@@H](CCCCN)C(=O)N[C@@H](C)C(=O)N[C@@H](CC(C)C)C(=O)N[C@@H](CCCCN)C(N)=O (some centres unmarked) [Compound 87] (Biotin-[ξGly(nC16H33)]HSKGHQKRKALK-NH2)"
readoutvalue = 76.1

[[record]]
molecule = "CCCCCCCCCCCCCCCC(=O)N[C@@H](Cc1cnc[nH]1)C(=O)N[C@@H](CO)C(=O)N[C@@H](CCCCN)C(=O)NCC(=O)N[C@@H](Cc1cnc[nH]1)C(=O)N[C@@H](CCC(N)=O)C(=O)N[C@@H](CCCCN)C(=O)N[C@@H](CCCNC(=N)N)C(=O)N[C@@H](CCCCN)C(=O)N[C@@H](C)C(=O)N[C@@H](CC(C)C)C(=O)N[C@@H](CCCCN)C(=O)N[C@H](C(=O)N[C@H](C(=O)N[C@H](C(=O)N[C@H](C(N)=O)[C@@H](C)CC)C(C)C)[C@@H](C)O)[C@@H](C)O [Compound 100] (Palmitoyl-HSKGHQKRKALKTTVI-NH2)"
readoutvalue = 49.8

[[record]]
molecule = "CCCCCCCCCCCCCCCC(=O)N[C@@H](Cc1cnc[nH]1)C(=O)N[C@@H](CO)C(=O)N[C@@H](CCCCN)C(=O)NCC(=O)N[C@@H](Cc1cnc[nH]1)C(=O)N[C@@H](CCC(N)=O)C(=O)N[C@@H](CCCCN)C(=O)N[C@@H](CCCNC(=N)N)C(=O)N[C@@H](CCCCN)C(=O)N[C@@H](C)C(=O)N[C@@H](CC(C)C)C(=O)N[C@@H](CCCCN)C(=O)N[C@H](C(N)=O)[C@@H](C)O [Compound 97] (Palmitoyl-HSKGHQKRKALKT-NH2)"
readoutvalue = 54.7


query: Provide measured activity at 1 µM value, entry: CCCCCCCCCCCCCCCC(=O)N[C@@H](CCCCN)C(=O)N[C@@H](CC(C)C)C(=O)N[C@@H](CO)C(=O)N[C@@H](Cc1cnc[nH]1)C(=O)N[C@@H](CO)C(=O)N[C@@H](CCCCN)C(=O)NCC(=O)N[C@@H](Cc1cnc[nH]1)C(=O)N[C@@H](CCC(N)=O)C(=O)N[C@@H](CCCCN)C(=O)N[C@@H](CCCNC(=N)N)C(=O)N[C@@H](CCCCN)C(=O)N[C@@H](C)C(N)=O [Compound 94] (Palmitoyl-KLSHSKGHQKRKA-NH2)
result: 80.5

* * *

# system: CXCR4 (Homo sapiens)
# assayDetails: Chemotaxis assay, effect on SDF1-a (CXCL12) induced migration of CCRF-CEM cells
# Assay type: cell-based
# Set-up: a human T-cell ALL line that endogenously expresses CXCR4; endogenous in cells; host or cells: CCRF-CEM (human T-cell ALL line)
# conditionDetails: Table 20, i3 loop; CEM cells; conc 1.0 uM; peak test compound/peak control
Peptide text beside a SMILES is read from it. * marks the point of attachment. Palmitoyl = CCCCCCCCCCCCCCCC(=O)*
quantityMeasured: Peak Ratio
One number for each entry.

Recorded Peak Ratio, per entry:
[[record]]
molecule = "CCCCCCCCCCCCCCCC(=O)N[C@@H](Cc1cnc[nH]1)C(=O)N[C@@H](CO)C(=O)N[C@@H](CCCCN)C(=O)NCC(=O)N[C@@H](Cc1cnc[nH]1)C(=O)N[C@@H](CCC(N)=O)C(=O)N[C@@H](CCCCN)C(=O)N[C@@H](CCCNC(=N)N)C(=O)N[C@@H](CCCCN)C(=O)N[C@@H](C)C(=O)N[C@@H](CC(C)C)C(=O)N[C@@H](CCCCN)C(=O)N[C@H](C(N)=O)[C@@H](C)O [Compound 97] (Palmitoyl-HSKGHQKRKALKT-NH2)"
readoutvalue = 0.2

[[record]]
molecule = "CCCCCCCCCCCCCCCC(=O)N[C@@H](CCCCN)C(=O)N[C@@H](CC(C)C)C(=O)N[C@@H](CO)C(=O)N[C@@H](Cc1cnc[nH]1)C(=O)N[C@@H](CO)C(=O)N[C@@H](CCCCN)C(=O)NCC(=O)N[C@@H](Cc1cnc[nH]1)C(=O)N[C@@H](CCC(N)=O)C(=O)N[C@@H](CCCCN)C(=O)N[C@@H](CCCNC(=N)N)C(=O)N[C@@H](CCCCN)C(=O)N[C@@H](C)C(N)=O [Compound 94] (Palmitoyl-KLSHSKGHQKRKA-NH2)"
readoutvalue = 1

[[record]]
molecule = "CCCCCCCCCCCCCCCC(=O)N[C@@H](CCCCN)C(=O)N[C@@H](CC(C)C)C(=O)N[C@@H](CO)C(=O)N[C@@H](Cc1cnc[nH]1)C(=O)N[C@@H](CO)C(=O)N[C@@H](CCCCN)C(=O)NCC(=O)N[C@@H](Cc1cnc[nH]1)C(=O)N[C@@H](CCC(N)=O)C(=O)N[C@@H](CCCCN)C(=O)N[C@@H](CCCNC(=N)N)C(=O)N[C@@H](CCCCN)C(=O)N[C@@H](C)C(=O)N[C@@H](CC(C)C)C(N)=O [Compound 93] (Palmitoyl-KLSHSKGHQKRKAL-NH2)"
readoutvalue = 0.2


query: Quote Peak Ratio reported for CCCCCCCCCCCCCCCC(=O)N[C@@H](Cc1cnc[nH]1)C(=O)N[C@@H](CO)C(=O)N[C@@H](CCCCN)C(=O)NCC(=O)N[C@@H](Cc1cnc[nH]1)C(=O)N[C@@H](CCC(N)=O)C(=O)N[C@@H](CCCCN)C(=O)N[C@@H](CCCNC(=N)N)C(=O)N[C@@H](CCCCN)C(=O)N[C@@H](C)C(=O)N[C@@H](CC(C)C)C(=O)N[C@@H](CCCCN)C(=O)N[C@H](C(=O)N[C@H](C(=O)N[C@H](C(N)=O)C(C)C)[C@@H](C)O)[C@@H](C)O [Compound 99] (Palmitoyl-HSKGHQKRKALKTTV-NH2) please.
result: 0.2

* * *

# system: CXCR4 (Homo sapiens, UniProt P61073)
# assayDetails: Chemotaxis assay using SUP B-15 cells
# Type: cell-based
# Set-up: A similar procedure was followed for chemotaxis using SUP B-15 cells; endogenous in cells; host or cells: SUP B-15 cells
# conditionDetails: Table 19, i2 loop; SUPB-15 cells; conc 1.0 uM
* marks the point of attachment. Palmitoyl = CCCCCCCCCCCCCCCC(=O)*
Exercise: for every item that follows, state its recorded Max (% of vehicle).

Consider the reported Max (% of vehicle) for these substances:
[[record]]
substance = "79 (Palmitoyl-HATNSQRPRKL-NH2; not fully specified) [Compound 79]"
quantitymeasured = "Max (% of vehicle)"
readoutvalue = "109.68 % of vehicle"

[[record]]
substance = "80 (Palmitoyl-HATNSQRPRKLLA-NH2; not fully specified) [Compound 80]"
quantitymeasured = "Max (% of vehicle)"
readoutvalue = "69.02 % of vehicle"

[[record]]
substance = "78 (Palmitoyl-VHATNSQRPRKLLA-NH2; not fully specified) [Compound 78]"
quantitymeasured = "Max (% of vehicle)"
readoutvalue = "72.31 % of vehicle"

[[record]]
substance = "81 (Palmitoyl-HATNSQRPRKLLAE-NH2; not fully specified) [Compound 81]"
quantitymeasured = "Max (% of vehicle)"
readoutvalue = "76.46 % of vehicle"

[[record]]
substance = "82 (Palmitoyl-HATNSQRPRKLLAEK-NH2; not fully specified) [Compound 82]"
quantitymeasured = "Max (% of vehicle)"
readoutvalue = "126.31 % of vehicle"


Now turn to the next substance.
query: Find the measured Max (% of vehicle) of 83 (Palmitoyl-HATNSQRPRKLLAEKV-NH2; not fully specified) [Compound 83] and report it.
result: 110.06 % of vehicle
